Parameter Plant response rating, Johnsongrass: see the listing below.
- System: johnsongrass (Sorghum halepense)
- measurement protocol: Test B pre-/postemergence plant response
- Format: in vivo
- setup conditions: Postemergence, 62 g ai/ha; scale 0 (no effect) to 100 (complete control); 13 to 15 days

{"given smiles": "O=C1CCCC(O)=C1C(=O)c1cnc(-c2cccs2)n(-c2ccccc2)c1=O", "system tested": "johnsongrass (Sorghum halepense)", "Plant response rating, Johnsongrass": 60}
{"given smiles": "O=C1CCCC(O)=C1C(=O)c1cnc(-c2ccccc2)n(-c2ccccc2Br)c1=O", "system tested": "johnsongrass (Sorghum halepense)", "Plant response rating, Johnsongrass": 40}
{"given smiles": "Cc1cccc(-n2c(-c3ccccc3)ncc(C(=O)C3=C(O)CCCC3=O)c2=O)c1C", "system tested": "johnsongrass (Sorghum halepense)", "Plant response rating, Johnsongrass": 45}
{"given smiles": "CCn1c(-c2ccccc2)ncc(C(=O)C2=C(O)CCCC2=O)c1=O", "system tested": "johnsongrass (Sorghum halepense)", "Plant response rating, Johnsongrass": 0}
{"given smiles": "Cc1ccc(-n2c(-c3cccc(Cl)c3)ncc(C(=O)C3=C(O)CCCC3=O)c2=O)cc1", "system tested": "johnsongrass (Sorghum halepense)", "Plant response rating, Johnsongrass": 65}
{"given smiles": "Cc1ccc(C)c(-n2c(-c3ccccc3)ncc(C(=O)C3=C(O)CCCC3=O)c2=O)c1", "system tested": "johnsongrass (Sorghum halepense)", "Plant response rating, Johnsongrass": 20}
{"given smiles": "CCCn1c(-c2ccccc2)ncc(C(=O)C2=C(O)CCCC2=O)c1=O", "system tested": "johnsongrass (Sorghum halepense)", "Plant response rating, Johnsongrass": 10}
{"given smiles": "CCCCc1ncc(C(=O)C2=C(O)CCCC2=O)c(=O)n1-c1ccccc1C", "system tested": "johnsongrass (Sorghum halepense)", "Plant response rating, Johnsongrass": 0}

###

- Tested on: giant foxtail (Setaria faberii)
- measurement protocol: Test B pre-/postemergence plant response
- Type: in vivo
- setup conditions: Preemergence, 250 g ai/ha; 0 to 100 scale
endpoint name: Foxtail, Giant plant response rating

{"compound": "CCCCn1c(C2CC2)ncc(C(=O)C2=C(O)CCCC2=O)c1=O [Compound 193]", "system tested": "giant foxtail (Setaria faberii)", "endpoint name": "Foxtail, Giant plant response rating", "measurement": 80}
{"compound": "O=C1CCCC(O)=C1C(=O)c1cnc(-c2cccnc2)n(-c2ccccc2)c1=O [Compound 113]", "system tested": "giant foxtail (Setaria faberii)", "endpoint name": "Foxtail, Giant plant response rating", "measurement": 85}
{"compound": "COCCCn1c(-c2cc(F)cc(F)c2)ncc(C(=O)C2=C(O)C3CCC(C3)C2=O)c1=O (stereo not shown) [Compound 244]", "system tested": "giant foxtail (Setaria faberii)", "endpoint name": "Foxtail, Giant plant response rating", "measurement": 100}
{"compound": "CCc1cccc(-n2c(-c3ccccc3)ncc(C(=O)C3=C(O)CCCC3=O)c2=O)c1 [Compound 220]", "system tested": "giant foxtail (Setaria faberii)", "endpoint name": "Foxtail, Giant plant response rating", "measurement": 75}

###

- Tested on: corn (Zea mays)
- measurement protocol: Test B pre-/postemergence plant response
- Assay type: in vivo
- setup conditions: Postemergence, 125 g ai/ha; scale 0 to 100 (0 no effect, 100 complete control)

{"molecule": "O=C1CCCC(O)=C1C(=O)c1cnc(-c2ccsc2)n(C2CCCCC2)c1=O [Compound 99]", "Plant response rating, Corn": 65}
{"molecule": "O=C1CCCC(O)=C1C(=O)c1cnc(-c2ccsc2)n(C2CCOCC2)c1=O [Compound 186]", "Plant response rating, Corn": 30}
{"molecule": "O=C1CCCC(O)=C1C(=O)c1cnc(-c2ccccc2)n(C2CCCCCC2)c1=O [Compound 130]", "Plant response rating, Corn": 80}
{"molecule": "O=C1CCCC(O)=C1C(=O)c1cnc(-c2ccccc2)n(C2CC[S+]([O-])CC2)c1=O (mixture of isomers) [Compound 169]", "Plant response rating, Corn": 55}
{"molecule": "O=C1CCCC(O)=C1C(=O)c1cnc(-c2ccsc2)n(CC2CCCO2)c1=O (stereo not shown) [Compound 98]", "Plant response rating, Corn": 55}
{"molecule": "Cc1ccc(-n2c(-c3cc(F)cc(F)c3)ncc(C(=O)C3=C(O)CCCC3=O)c2=O)cc1 [Compound 162]", "Plant response rating, Corn": 80}
{"molecule": "COCCn1c(-c2cccs2)ncc(C(=O)C2=C(O)CCCC2=O)c1=O [Compound 108]", "Plant response rating, Corn": 50}
{"molecule": "COCCn1c(-c2ccco2)ncc(C(=O)C2=C(O)CCCC2=O)c1=O [Compound 111]", "Plant response rating, Corn": 55}
{"molecule": "CCCn1c(-c2ccccc2)ncc(C(=O)C2=C(O)C3CCC(C3)C2=O)c1=O (stereo not shown) [Compound 226]", "Plant response rating, Corn": 98}
{"molecule": "CCCn1c(-c2cccc(OC)c2)ncc(C(=O)C2=C(O)CCCC2=O)c1=O [Compound 100]", "Plant response rating, Corn": 20}

###

Parameter Plant response rating, Foxtail, Giant: see the listing below.
- System: giant foxtail (Setaria faberii)
- measurement protocol: Test A pre-/postemergence plant response
- Format: in vivo
- setup conditions: Postemergence, 125 g ai/ha; 0 to 100 scale where 0 is no effect and 100 is complete control
endpoint name: Plant response rating, Foxtail, Giant

{"molecule": "CCc1ccc(-n2c(-c3cccc(C)c3)ncc(C(=O)C3=C(O)CCCC3=O)c2=O)cc1", "system tested": "giant foxtail (Setaria faberii)", "measurement": 10}
{"molecule": "COc1ccc(-n2c(-c3cccc(Br)c3)ncc(C(=O)C3=C(O)CCCC3=O)c2=O)cc1", "system tested": "giant foxtail (Setaria faberii)", "measurement": 10}
{"molecule": "CCOCCn1c(-c2ccccc2)ncc(C(=O)C2=C(O)CCCC2=O)c1=O", "system tested": "giant foxtail (Setaria faberii)", "measurement": 70}
{"molecule": "O=C1CCCC(O)=C1C(=O)c1cnc(-c2ccccc2)n(C2CCOCC2)c1=O", "system tested": "giant foxtail (Setaria faberii)", "measurement": 90}
{"molecule": "CCn1c(-c2cccc(F)c2)ncc(C(=O)C2=C(O)CCCC2=O)c1=O", "system tested": "giant foxtail (Setaria faberii)", "measurement": 50}
{"molecule": "O=C1CCCC(O)=C1C(=O)c1cnc(-c2ccccc2)n(C2CC[S+]([O-])CC2)c1=O (mixture of isomers)", "system tested": "giant foxtail (Setaria faberii)", "measurement": 80}
{"molecule": "CCCn1c(-c2cccc(OC)c2)ncc(C(=O)C2=C(O)CCCC2=O)c1=O", "system tested": "giant foxtail (Setaria faberii)", "measurement": 80}
{"molecule": "O=C1CCCC(O)=C1C(=O)c1cnc(-c2cccc(Br)c2)n(C2CCCCC2)c1=O", "system tested": "giant foxtail (Setaria faberii)", "measurement": 50}
{"molecule": "O=C1CCCC(O)=C1C(=O)c1cnc(-c2ccsc2)n(C2CCOCC2)c1=O", "system tested": "giant foxtail (Setaria faberii)", "measurement": 80}
{"molecule": "CCCc1ncc(C(=O)C2=C(O)CCCC2=O)c(=O)n1-c1cccc(C)c1", "system tested": "giant foxtail (Setaria faberii)", "measurement": 50}
{"molecule": "CCCn1c(-c2cccc(F)c2)ncc(C(=O)C2=C(O)CCCC2=O)c1=O", "system tested": "giant foxtail (Setaria faberii)", "measurement": 70}
{"molecule": "O=C1CCCC(O)=C1C(=O)c1cnc(C2CCCC2)n(-c2ccccc2)c1=O", "system tested": "giant foxtail (Setaria faberii)", "measurement": 80}
{"molecule": "COc1ccc(-n2c(-c3cccc(Cl)c3)ncc(C(=O)C3=C(O)CCCC3=O)c2=O)cc1", "system tested": "giant foxtail (Setaria faberii)", "measurement": 20}
{"molecule": "CCn1c(-c2cccc(F)c2)ncc(C(=O)C2=C(O)C3CCC(C3)C2=O)c1=O (stereo not drawn)", "system tested": "giant foxtail (Setaria faberii)", "measurement": 70}
{"molecule": "CCc1ccc(-n2c(-c3cccc(F)c3)ncc(C(=O)C3=C(O)CCCC3=O)c2=O)cc1", "system tested": "giant foxtail (Setaria faberii)", "measurement": 30}
{"molecule": "CCCn1c(-c2cccc(C)c2)ncc(C(=O)C2=C(O)CCCC2=O)c1=O", "system tested": "giant foxtail (Setaria faberii)", "measurement": 60}
{"molecule": "Cc1ccc(F)cc1-n1c(-c2cc(F)cc(F)c2)ncc(C(=O)C2=C(O)CCCC2=O)c1=O", "system tested": "giant foxtail (Setaria faberii)", "measurement": 80}
{"molecule": "CCCCn1c(C2CC2)ncc(C(=O)C2=C(O)CCCC2=O)c1=O", "system tested": "giant foxtail (Setaria faberii)", "measurement": 90}

###

- Test system: corn (Zea mays)
- measurement protocol: Test B pre-/postemergence plant response
- Type: in vivo
- setup conditions: 62 g ai/ha, postemergence; 0 is no effect, 100 is complete control; 13 to 15 days
endpoint name: Corn plant response rating (0 to 100 scale)

{"given smiles": "COCCn1c(-c2ccsc2)ncc(C(=O)C2=C(O)CCCC2=O)c1=O", "measurement": 40}
{"given smiles": "O=C1CCCC(O)=C1C(=O)c1cnc(C2CCCC2)n(-c2ccccc2)c1=O", "measurement": 35}
{"given smiles": "CCCc1ncc(C(=O)C2=C(O)CCCC2=O)c(=O)n1CCC", "measurement": 0}
{"given smiles": "COCCCn1c(-c2ccccc2)ncc(C(=O)C2=C(O)CCCC2=O)c1=O", "measurement": 10}
{"given smiles": "O=C1CCCC(O)=C1C(=O)c1cnc(-c2ccccc2)n(C2CCCCC2)c1=O", "measurement": 50}
{"given smiles": "O=C1CCCC(O)=C1C(=O)c1cnc(-c2ccccc2)n(C2CCOCC2)c1=O", "measurement": 35}
{"given smiles": "O=C1CCCC(O)=C1C(=O)c1cnc(-c2ccccc2)n(C2CCCCCC2)c1=O", "measurement": 60}
{"given smiles": "CCn1c(-c2cc(F)cc(F)c2)ncc(C(=O)C2=C(O)CCCC2=O)c1=O", "measurement": 15}
{"given smiles": "CCCc1ncc(C(=O)C2=C(O)CCCC2=O)c(=O)n1-c1cccc(C)c1", "measurement": 45}
